Target: Leukotriene A-4 hydrolase (Homo sapiens, UniProt P09960)
Sequence (P09960 whole entry): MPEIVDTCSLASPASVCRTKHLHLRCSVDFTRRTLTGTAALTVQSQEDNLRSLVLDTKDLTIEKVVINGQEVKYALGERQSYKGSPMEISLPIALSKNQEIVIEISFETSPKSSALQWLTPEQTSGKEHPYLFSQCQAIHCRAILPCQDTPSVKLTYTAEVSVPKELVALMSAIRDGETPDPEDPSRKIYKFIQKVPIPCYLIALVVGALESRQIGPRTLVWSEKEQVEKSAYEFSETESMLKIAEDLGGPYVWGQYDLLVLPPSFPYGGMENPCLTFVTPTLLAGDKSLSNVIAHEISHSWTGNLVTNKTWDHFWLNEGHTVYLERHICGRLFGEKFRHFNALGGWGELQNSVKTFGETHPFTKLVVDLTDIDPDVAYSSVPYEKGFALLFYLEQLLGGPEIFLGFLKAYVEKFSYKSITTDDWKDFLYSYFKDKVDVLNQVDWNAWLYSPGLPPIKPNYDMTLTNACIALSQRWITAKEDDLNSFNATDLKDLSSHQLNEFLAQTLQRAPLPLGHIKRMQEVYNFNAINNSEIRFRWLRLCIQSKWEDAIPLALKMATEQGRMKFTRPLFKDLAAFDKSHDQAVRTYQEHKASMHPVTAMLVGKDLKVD
Assay: Inhibition of recombinant C-terminal His-tagged human LTA4H epoxide hydrolase activity expressed in Escherichia coli assessed as reduction in LTB4 production using LTA4 as substrate preincubated for 20 mins followed by substrate addition measured after 30 mins by enzyme immunoassay
measurement_name: IC50 (µM)
Give bare numbers, in µM.

compound="C=CCOc1ccc(CCC(=O)CC(O)CCCCC)cc1OC (stereo unspecified)" measurement_name=IC50 value_measured=66.4
compound="CCCCC/C=C/CCC(O)CC(=O)CCc1ccc(O)c(OC)c1 (stereo unspecified)" measurement_name=IC50 value_measured=67.1
compound="CCCCCC(O)CC(=O)CCc1cc(OC)c(O)c(-c2cc(CCC(=O)CC(O)CCCCC)cc(OC)c2O)c1 (stereo unspecified)" measurement_name=IC50 value_measured=77.8
compound="CCCCCC(CC(=O)CCc1ccc(OC(C)=O)c(OC)c1)OC(C)=O (stereo unspecified)" measurement_name=IC50 value_measured=27.6
compound="CCCCCC(O)CC(=O)CCc1ccc(OCC=C(C)C)c(OC)c1 (stereo unspecified)" measurement_name=IC50 value_measured=7.25

Below is a list of compounds. For each, state its recorded IC50.
1. CCCCCC(O)CC(=O)CCc1ccc(O)c(OC)c1 (stereo unspecified)
2. CCCCC/C=C/C(=O)CCc1ccc(OC)c(OC)c1
3. CCCCC/C=C/C(=O)CCc1ccc(O)c(OC)c1
4. Nc1nc(-c2ccc(Cc3ccccc3)cc2)cs1

[58.3, 11.3, 24.6, 12.4]

----------
Assay: Cytotoxicity against human HF19 cells assessed as reduction in cell viability after 48 hrs by WST1 assay
Format: toxicity, cell-based
Answer each item with its documented IC50 at 48 h.

Some solved entries appear below for comparison.
molecule=Nc1nc(-c2ccc(Cc3ccccc3)cc2)cs1 measurement_name="IC50 at 48 h" value_measured="> 100 µM"
molecule="CCCCCC(O)CC(=O)CCc1ccc(OCC=C(C)C)c(OC)c1 (centres undefined)" measurement_name="IC50 at 48 h" value_measured="> 100 µM"
molecule="CCCC(O)CC(=O)CCc1ccc(O)c(OC)c1 (centres undefined)" measurement_name="IC50 at 48 h" value_measured="> 100 µM"
molecule="CCCCC/C=C/CCC(O)CC(=O)CCc1ccc(O)c(OC)c1 (centres undefined)" measurement_name="IC50 at 48 h" value_measured="97.5 µM"

Below is a list of molecules. For each, state its recorded IC50 at 48 h.
1. CCCCC/C=C/C(=O)CCc1ccc(O)c(OC)c1
2. COc1ccc(CCC(C)=O)cc1OC
3. CC(C)=CCCC(C)[C@H]1CC=C(C)C(O)[C@H]1O (some centres undefined)
4. CCCCCC(CC(=O)CCc1ccc(OC(C)=O)c(OC)c1)OC(C)=O (centres undefined)
5. CCCCCC(O)CC(=O)CCc1ccc(OC)c(OC)c1 (centres undefined)
6. CC(C)C[C@H](NC(=O)[C@@H](O)[C@H](N)Cc1ccccc1)C(=O)O
7. CCCCCC(CC(=O)CCc1ccc(O)c(OC)c1)OC (centres undefined)

1: > 100 µM; 2: > 100 µM; 3: > 100 µM; 4: > 100 µM; 5: 88.4 µM; 6: 89.5 µM; 7: > 100 µM

The values you see were collected from ChEMBL document CHEMBL3875224.
